target of assay: Human glucocorticoid receptors (Homo sapiens, UniProt P04150)
Construct: made in house; host or cells: Sf9 insect cells, recombinant baculovirus (BAC-TO-BAC)
test summary: Radioligand filter binding assay, displacement of 3(H)-dexamethasone from human glucocorticoid receptor cytosol
condition info: 1.7 μM test compound; inhibition of 3(H)-dex binding to hGR; read-out: GR BINDING (% Inhibition @ 1.7 μM)
Property: inhibition at 1.7 µM; scope: individual molecules
Provide the reading as a plain figure in %.

Check out these entries, answers already filled in.
Q: Record lookup: for Human glucocorticoid receptors (Homo sapiens, UniProt P04150), what inhibition at 1.7 µM belongs to COc1cccc2c1-c1ccc(NS(=O)(=O)/C=C/c3ccccc3)cc1C(c1ccccc1)O2 (centres unmarked) ?
Ans: 57.8

Q: Entry to check: COCCCCCCc1cccc(C2Oc3cccc(OC(F)F)c3-c3ccc(NS(C)(=O)=O)cc32)c1 (centres unmarked)
Ans: 93.6

Q: Entry to check: COc1cccc2c1-c1ccc(NCC3CC3)cc1C(c1ccccc1)O2 (centres unmarked)
Ans: 54.4

Q: Entry to check: COc1cccc2c1-c1ccc(NS(C)(=O)=O)cc1C(c1cccc(N(C)C(C)=O)c1)O2 (centres unmarked)
Ans: 74.8

Q: Entry to check: COc1cccc2c1-c1ccc(NS(C)(=O)=O)cc1C(c1cccc(CCCCC#N)c1)O2 (centres unmarked)
Ans: 87.7

Others:
Q: Record lookup: for Human glucocorticoid receptors (Homo sapiens, UniProt P04150), what inhibition at 1.7 µM belongs to COCCOCOc1ccc2c(c1OC)-c1ccc(NS(C)(=O)=O)cc1C(c1ccccc1)O2 (centres unmarked) ?
Ans: 42.7

Q: Entry to check: COc1cccc2c1-c1ccc(NC(=O)C(F)(F)F)cc1C(c1ccccc1)O2 (centres unmarked)
Ans: 87.9

Q: Entry to check: COc1cccc2c1-c1ccc(NS(C)(=O)=O)cc1C(c1ccc(C#N)cc1)O2 (centres unmarked)
Ans: 94.5

###

target of assay: Human glucocorticoid receptors (Homo sapiens, UniProt P04150)
Construct: made in house; host or cells: Sf9 insect cells, recombinant baculovirus (BAC-TO-BAC)
Sequence (P04150 1-777): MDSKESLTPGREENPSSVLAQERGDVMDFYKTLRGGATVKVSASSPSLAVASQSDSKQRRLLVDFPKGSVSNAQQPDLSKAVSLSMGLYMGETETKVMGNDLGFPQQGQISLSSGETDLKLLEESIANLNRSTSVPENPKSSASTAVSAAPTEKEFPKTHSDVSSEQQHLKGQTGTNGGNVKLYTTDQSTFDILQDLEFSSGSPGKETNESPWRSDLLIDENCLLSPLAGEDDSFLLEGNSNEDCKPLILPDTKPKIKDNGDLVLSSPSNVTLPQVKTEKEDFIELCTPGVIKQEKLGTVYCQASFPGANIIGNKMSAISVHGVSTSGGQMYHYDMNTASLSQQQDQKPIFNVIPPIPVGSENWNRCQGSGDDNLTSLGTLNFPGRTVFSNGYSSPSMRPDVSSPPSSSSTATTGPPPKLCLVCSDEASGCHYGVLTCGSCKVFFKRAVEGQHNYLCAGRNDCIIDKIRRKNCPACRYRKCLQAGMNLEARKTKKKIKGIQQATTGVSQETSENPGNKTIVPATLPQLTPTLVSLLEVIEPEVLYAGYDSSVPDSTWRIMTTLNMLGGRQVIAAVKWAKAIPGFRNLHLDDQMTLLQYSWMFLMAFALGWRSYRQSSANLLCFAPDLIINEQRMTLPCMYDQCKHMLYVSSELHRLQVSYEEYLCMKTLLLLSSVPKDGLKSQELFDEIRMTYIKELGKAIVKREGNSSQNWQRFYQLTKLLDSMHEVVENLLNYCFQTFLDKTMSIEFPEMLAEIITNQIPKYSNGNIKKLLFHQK
test summary: Radioligand filter binding assay, displacement of 3(H)-dexamethasone from human glucocorticoid receptor cytosol
condition info: 1.7 μM test compound; inhibition of 3(H)-dex binding to hGR; read-out: GR BINDING (% Inhibition @ 1.7 μM)
experimental endpoint: inhibition at 1.7 µM (%)
Provide the reading as a plain figure in %.

Q: Sample COc1cccc2c1-c1ccc(NS(C)(=O)=O)cc1C(Cc1cc(F)cc(F)c1)O2 (centres unmarked) [Example 85] — what was its inhibition at 1.7 µM?
Ans: 81.6

Others:
Q: Sample C=CCOc1ccc2c(c1OC)-c1ccc(NS(C)(=O)=O)cc1C(c1ccccc1)O2 (centres unmarked) [Example 105] — what was its inhibition at 1.7 µM?
Ans: 83.5

Q: Entry to check: COCCCc1ccc(C2Oc3cccc(OC)c3-c3ccc(NS(C)(=O)=O)cc32)s1 (centres unmarked) [Example 138]
Ans: 92.5
